# maps each entry to its EC50 (nM), IL-8 secretion by primary human monocytes, human IL-36γ
Molecular target: T1, human IL-36R (on cells) (human, UniProt Q9HB29 20-575)
T1 sequence (looked up): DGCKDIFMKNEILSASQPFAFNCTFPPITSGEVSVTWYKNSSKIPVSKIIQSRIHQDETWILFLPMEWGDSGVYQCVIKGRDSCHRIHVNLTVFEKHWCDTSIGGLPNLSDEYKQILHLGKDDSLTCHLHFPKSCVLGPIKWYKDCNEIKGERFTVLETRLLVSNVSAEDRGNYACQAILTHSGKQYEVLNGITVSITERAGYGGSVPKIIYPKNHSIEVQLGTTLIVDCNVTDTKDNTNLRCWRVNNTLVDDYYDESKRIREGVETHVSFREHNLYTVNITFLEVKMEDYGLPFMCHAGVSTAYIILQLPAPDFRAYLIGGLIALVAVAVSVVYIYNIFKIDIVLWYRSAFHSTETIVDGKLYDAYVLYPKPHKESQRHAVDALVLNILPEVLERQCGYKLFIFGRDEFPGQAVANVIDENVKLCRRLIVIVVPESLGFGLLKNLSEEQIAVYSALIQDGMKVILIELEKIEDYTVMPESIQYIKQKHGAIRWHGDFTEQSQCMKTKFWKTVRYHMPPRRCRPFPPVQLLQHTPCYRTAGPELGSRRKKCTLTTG
Test: cell-based or functional assay
Field format: number, assumed nM, no unit text.

Record Hzd 5D3 (APE6194) (antibody, V domains shown, also called 5D3 Humanized) VH: QVQLVQSGAEVKKPGASVKVSCKASGYTFTNYWMNWVRQAPRQGLEWMGMFHPYGDVTRLNQKFKDRVTMTRDTSTSTVYMELSSLRSEDTAVYYCARTTSMIIGGFAYWGQGTLVTVSS VL: DIVMTQTPLSLSVTPGQPASISCRSSKSLLHRNAITYFYWYLHKPGQPPQLLIYQMSNLASGVPDRFSGSGSGTDFTLKISRVEAEDVGVYYCAQNLELPLTFGGGTKVEIK . Reported EC50 (nM), IL-8 secretion by primary human monocytes, human IL-36γ: 0.084

Item: Humanized (HzD) 1D9 (APE5281) (antibody, V domains shown, also called 1D9 Humanized) VH: QVQLMQSGAEVKKPGASVKVSCKASGFTFTSYDINWVRQAPGQRLEWMGWIYPGDSSTKYNEKFKGRVTITADKSANTAYMELASLRSEDTAVYFCTRSFYTMDYWGQGTTVTVSS VL: DIVMTQSPLSLPVTPGEPASISCRSSKSLLHSNANTYLYWFLQKPGQSPQLLISRMSNLASGVPDRFSGSGSGTDFTLKISRVEAEDVGVYYCMQHLEYPFTFGQGTKLEIK | EC50 (nM), IL-8 secretion by primary human monocytes, human IL-36γ: 0.027

Form field EC50 (nM), IL-8 secretion by primary human monocytes, human IL-36γ, entry Chimeric 18D4 (APE3847) (antibody, V domains shown) VH: DVQFQESGPGLVKPSQSLSLTCTVTGYSITSDFAWNWIRQFPGNKLEWMGYISYSGDTNYNPSLKSRISITRDTSKNQFFLQLNSVTTEDTATYFCAIRGPYSFTYWGPGTLVTVSS VL: DIQMTQTTSSLSASLGDRVTINCRASQDINNYLNWYQQKPDGTIRLLIYYTSRLHSGVPSRFSPNGSGTDYSLTINNLEQEDIATYFCQQGHTLPWTFGGGTKLEIK : 3

New cases:
Noted for Hzd 5D3 (APE6060) (antibody, V domains shown, also called 5D3 Humanized) VH: QVQLVQSGAEVKKPGASVKVSCKASGYTFTNYWMNWVRQAPRQGLEWMGMFHPTGDVTRLNQKFKDRVTMTRDTSTSTVYMELSSLRSEDTAVYYCARTTSMIIGGFAYWGQGTLVTVSS VL: DIVMTQTPLSLSVTPGQPASISCRSSKSLLHRNAITYFYWYLQKPGQPPQLLIYQMSNLASGVPDRFSGSGSGTDFTLKISRVEAEDVGVYYCAQNLELPLTFGGGTKVEIK : its EC50 (nM), IL-8 secretion by primary human monocytes, human IL-36γ reads 0.79

// field: EC50 (nM), IL-8 secretion by primary human monocytes, human IL-36γ; key: Hzd 5D3 (APE6155) (antibody, V domains shown, also called APE6917; APE06155) VH: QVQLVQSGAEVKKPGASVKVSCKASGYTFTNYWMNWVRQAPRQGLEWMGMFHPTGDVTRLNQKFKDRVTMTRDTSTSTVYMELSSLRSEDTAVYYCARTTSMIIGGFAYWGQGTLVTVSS VL: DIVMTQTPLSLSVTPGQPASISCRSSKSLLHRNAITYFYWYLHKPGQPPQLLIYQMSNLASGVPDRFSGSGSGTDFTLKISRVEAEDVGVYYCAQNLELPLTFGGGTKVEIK ; value = 0.078
